Assign MIC to each entry below.
- System: Aspergillus fumigatus
- MEASUREMENT DESCRIPTION: Antifungal activity against azole-resistant Aspergillus fumigatus V34/77-CM3278 isolate from patient with hyper-immunoglobulin E syndrome by broth microdilution susceptibility test
- Type: functional
One number for each entry, in µg/mL.

[[record]]
compound = "C[C@@H]1[C@H](O)[C@@H](C)/C=C/C=C/C=C/C=C/C=C/C=C/C=C/[C@H](O[C@@H]2O[C@H](C)[C@@H](O)[C@H](N)[C@@H]2O)C[C@@H]2O[C@](O)(C[C@@H](O)C[C@@H](O)[C@H](O)CC[C@@H](O)C[C@@H](O)CC(=O)O[C@H]1C)C[C@H](O)[C@H]2C(=O)O [AMPHOTERICIN B]"
system_under_test = "Aspergillus fumigatus"
outcome_measure = "MIC"
value = 0.25


Data request: Item C[C@@H](c1nc(-c2ccc(C#N)cc2)cs1)[C@](O)(Cn1cncn1)c1ccc(F)cc1F [RAVUCONAZOLE] with Aspergillus fumigatus - MIC?
Data returned: 4

* * *

- System: Aspergillus fumigatus
- MEASUREMENT DESCRIPTION: Antifungal activity against azole-resistant Aspergillus fumigatus V27/28-CM3273 isolate from patient by broth microdilution susceptibility test
- Format: functional
Task for the reader: assign each of the following compounds its reported MIC.
Give bare numbers, in µg/mL.

Examples with answers:
[[record]]
cpd_smiles = "C[C@@H](c1ncncc1F)[C@](O)(Cn1cncn1)c1ccc(F)cc1F"
value = 4

[[record]]
cpd_smiles = "C[C@@H](c1nc(-c2ccc(C#N)cc2)cs1)[C@](O)(Cn1cncn1)c1ccc(F)cc1F"
value = 4


For each of the compounds below, note its MIC.
1. C[C@@H]1[C@H](O)[C@@H](C)/C=C/C=C/C=C/C=C/C=C/C=C/C=C/[C@H](O[C@@H]2O[C@H](C)[C@@H](O)[C@H](N)[C@@H]2O)C[C@@H]2O[C@](O)(C[C@@H](O)C[C@@H](O)[C@H](O)CC[C@@H](O)C[C@@H](O)CC(=O)O[C@H]1C)C[C@H](O)[C@H]2C(=O)O
2. CC[C@@H]([C@H](C)O)n1ncn(-c2ccc(N3CCN(c4ccc(OC[C@@H]5CO[C@@](Cn6cncn6)(c6ccc(F)cc6F)C5)cc4)CC3)cc2)c1=O

Data returned:
1. 0.25
2. 1

* * *

Give measured MIC for each item. Keep answers brief.
- Test system: Aspergillus fumigatus
- MEASUREMENT DESCRIPTION: Antifungal activity against azole-resistant Aspergillus fumigatus V48/27-CM3936 isolate from patient with acute myeloid leukemia by broth microdilution susceptibility test
- Assay type: functional
Numbers only, in µg/mL.

State recorded MIC for all listed molecules.
1. C[C@@H](c1ncncc1F)[C@](O)(Cn1cncn1)c1ccc(F)cc1F
2. C[C@@H](c1nc(-c2ccc(C#N)cc2)cs1)[C@](O)(Cn1cncn1)c1ccc(F)cc1F
3. C[C@@H]1[C@H](O)[C@@H](C)/C=C/C=C/C=C/C=C/C=C/C=C/C=C/[C@H](O[C@@H]2O[C@H](C)[C@@H](O)[C@H](N)[C@@H]2O)C[C@@H]2O[C@](O)(C[C@@H](O)C[C@@H](O)[C@H](O)CC[C@@H](O)C[C@@H](O)CC(=O)O[C@H]1C)C[C@H](O)[C@H]2C(=O)O
4. CC[C@@H]([C@H](C)O)n1ncn(-c2ccc(N3CCN(c4ccc(OC[C@@H]5CO[C@@](Cn6cncn6)(c6ccc(F)cc6F)C5)cc4)CC3)cc2)c1=O

Data returned:
[4, 8, 0.25, 4]
